Each recorded value in this set is attributed to ChEMBL document CHEMBL3085670.

MIC values, listed per item
- System: Enterococcus faecalis
- PROTOCOL TEXT: Antibacterial activity against Enterococcus faecalis ATCC 35550 after 24 hrs by broth microdilution method
- Type: functional
- RECORDED CONDITIONS: ATCC 35550, 24 h

# MOLECULE, MIC / µg/mL
data = [
    ("CCOC(=O)C(Cc1ccc(OCc2cc(=O)oc3ccc(Cl)cc23)cc1)NC(=O)c1ccccc1 (centres undefined)", 0.2),
    ("CCOC(=O)C(Cc1ccc(OCc2cc(=O)oc3ccc(C)cc23)cc1)NC(=O)c1ccccc1 (centres undefined)", 0.8),
    ("CCOC(=O)c1cc(O)c(OCc2cc(=O)oc3c(C)c(C)ccc23)c(O)c1", 0.2),
    ("CCOC(=O)c1cc(O)c(OCc2cc(=O)oc3ccc(OC)cc23)c(O)c1", 0.2),
    ("O=C(O)c1cn(C2CC2)c2cc(N3CCNCC3)c(F)cc2c1=O", 2),
    ("CCOC(=O)C(Cc1ccc(OCc2cc(=O)oc3ccc4ccccc4c23)cc1)NC(=O)c1ccccc1 (centres undefined)", 0.4),
    ("CCOC(=O)C(Cc1ccc(OCc2cc(=O)oc3c(C)c(C)ccc23)cc1)NC(=O)c1ccccc1 (centres undefined)", 0.2),
    ("CCOC(=O)C(Cc1ccc(OCc2cc(=O)oc3cc(OC)ccc23)cc1)NC(=O)c1ccccc1 (centres undefined)", 0.8),
    ("CCOC(=O)C(Cc1ccc(OCc2cc(=O)oc3ccc(OC)cc23)cc1)NC(=O)c1ccccc1 (centres undefined)", 0.4),
]

* * *

- System: Staphylococcus aureus
- PROTOCOL TEXT: Antibacterial activity against Staphylococcus aureus ATCC 12598 after 24 hrs by broth microdilution method
- Type: functional
- RECORDED CONDITIONS: ATCC 12598, 24 h

# MOLECULE, MIC (µg/mL)
data = [
    ("CCOC(=O)c1cc(O)c(OCc2cc(=O)oc3ccc4ccccc4c23)c(O)c1", 0.4),
    ("CCOC(=O)c1cc(O)c(OCc2cc(=O)oc3ccc(C)cc23)c(O)c1", 1.6),
    ("CCOC(=O)c1cc(O)c(OCc2cc(=O)oc3ccc(OC)cc23)c(O)c1", 0.8),
    ("CCOC(=O)c1cc(O)c(OCc2cc(=O)oc3cc(C)cc(C)c23)c(O)c1", 0.8),
    ("CCOC(=O)C(Cc1ccc(OCc2cc(=O)oc3ccc(Cl)cc23)cc1)NC(=O)c1ccccc1 (stereo not drawn)", 100),
    ("CCOC(=O)c1cc(O)c(OCc2cc(=O)oc3c(C)c(C)ccc23)c(O)c1", 0.2),
    ("CCOC(=O)c1cc(O)c(OCc2cc(=O)oc3cc(OC)ccc23)c(O)c1", 1.6),
    ("CCOC(=O)C(Cc1ccc(OCc2cc(=O)oc3ccc(C)cc23)cc1)NC(=O)c1ccccc1 (stereo not drawn)", 100),
]
